What pIC50 was measured for each of the following?
biological target: Avi-KRAS G12V (1-169) GppNHp/RAF1 RBD-3×FLAG (52-151) (Homo sapiens, UniProt P01116, G12V); construct: 50 nM Avi-KRAS G12V (1-169) GppNHp/RAF1 RBD-3×FLAG (52-151); experiment: Disrupting RAS-effector binding HTRF assay, Raf1 RBD-KRAS G12V-GppNHp; details: PPI HTRF, 50 nM Avi-KRAS G12V GppNHp, compound titration 30-0.0045 μM; read-out: Raf1 RBD-KRAS G12V-GppNHp disruption
Sequence (P01116 1-169 isoform P01116-2 G12V limits assumed): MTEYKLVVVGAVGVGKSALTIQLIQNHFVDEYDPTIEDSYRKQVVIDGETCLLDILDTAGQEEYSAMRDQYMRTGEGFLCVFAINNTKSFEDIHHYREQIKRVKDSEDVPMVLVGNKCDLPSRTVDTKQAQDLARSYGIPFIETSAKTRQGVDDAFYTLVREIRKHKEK
pIC50: −log10 of the molar value.

(Q) Assign pIC50 to the following record: COc1nc(N2CC3CCC(C2)N3)c2cc(C(F)(F)F)c(-c3ccc(F)c4sc(N)c(C#N)c34)c(F)c2n1 [Compound 1]
(A) < 5.00

(Q) Assign pIC50 to the following record: COc1c(Cl)c(-c2ccc(F)c3sc(N)c(C#N)c23)c(F)c2ncnc(N3CC4CCC(C3)N4)c12 [Compound 35]
(A) < 5.00

(Q) Assign pIC50 to the following record: N#Cc1c(N)sc2c(F)ccc(-c3c(C(F)(F)F)cc4c(N5CC6CCC(C5)N6)nc(OCCC5CCOC5)nc4c3F)c12 (stereo not drawn) [Compound 50]
(A) < 5.00

(Q) Assign pIC50 to the following record: CN1C[C@@H](COc2nc(N3CC4CCC(C3)N4)c3cc(C(F)(F)F)c(-c4ccc(F)c5sc(N)c(C#N)c45)c(F)c3n2)CC1=O [Compound 56]
(A) 5.00 to 6.00

(Q) Assign pIC50 to the following record: CN(C(=O)c1cnn(C)c1)c1nc(N2CC3CCC(C2)N3)c2cc(C(F)(F)F)c(-c3ccc(F)c4sc(N)c(C#N)c34)c(F)c2n1 [Compound 27]
(A) < 5.00

(Q) Assign pIC50 to the following record: N#Cc1c(N)sc2c(F)ccc(-c3c(C(F)(F)F)cc4c(N5CC6CCC(C5)N6)nc(OCC5(O)CC5)nc4c3F)c12 [Compound 7]
(A) < 5.00

Data provenance is patent US20260035376A1.
